These measurements were taken from patent US8101761B2.

# tested-on: human GR (glucocorticoid receptor) (Homo sapiens, UniProt P04150)
# Sequence (P04150 whole entry): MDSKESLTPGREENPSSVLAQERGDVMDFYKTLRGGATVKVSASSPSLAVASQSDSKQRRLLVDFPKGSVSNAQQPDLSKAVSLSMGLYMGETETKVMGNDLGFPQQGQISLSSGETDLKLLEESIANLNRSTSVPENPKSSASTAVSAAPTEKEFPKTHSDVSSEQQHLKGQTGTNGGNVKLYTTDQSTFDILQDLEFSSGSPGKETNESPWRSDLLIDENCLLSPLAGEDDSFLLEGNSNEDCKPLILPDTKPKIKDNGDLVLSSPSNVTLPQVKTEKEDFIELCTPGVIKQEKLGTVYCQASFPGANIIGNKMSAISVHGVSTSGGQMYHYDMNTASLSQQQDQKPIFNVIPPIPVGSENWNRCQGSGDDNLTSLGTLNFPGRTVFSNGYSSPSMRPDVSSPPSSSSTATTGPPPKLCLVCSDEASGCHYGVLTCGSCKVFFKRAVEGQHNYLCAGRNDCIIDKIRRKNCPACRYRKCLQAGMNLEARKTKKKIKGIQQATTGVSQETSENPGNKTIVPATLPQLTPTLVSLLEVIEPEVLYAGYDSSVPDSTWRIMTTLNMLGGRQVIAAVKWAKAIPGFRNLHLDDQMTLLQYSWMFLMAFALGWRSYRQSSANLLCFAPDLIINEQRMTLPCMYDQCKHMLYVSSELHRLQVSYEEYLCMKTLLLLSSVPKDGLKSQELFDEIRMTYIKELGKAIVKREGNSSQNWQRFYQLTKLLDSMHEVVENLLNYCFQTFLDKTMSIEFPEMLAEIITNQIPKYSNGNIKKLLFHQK
# experiment-description: Nuclear hormone receptor competition binding assay, GR
# stated-conditions: HEK293 lysate overexpressing human GR, [3H]-dexamethasone; mean of n=7
pKi: −log10 of the molar value.
endpoint-name: pKi

Prompt line: Any idea what its pKi is? The molecule is `CC/C(=C1\c2ccc(F)cc2OCc2ncccc21)c1cccc(NS(C)(=O)=O)c1`
Response line: ~9.70

----------
# tested-on: human glucocorticoid receptor (GR) (Homo sapiens)
# Sequence (P04150 whole entry): as above
# experiment-description: Nuclear hormone receptor functional modulation assay (GRE-luciferase reporter, HEK293), GR
# stated-conditions: agonist mode; mean of n=4 or 5; read-out: EC50 in activating transcription, GR
pEC50: −log10 of the molar value.
endpoint-name: pEC50

Prompt line: Under human glucocorticoid receptor (GR) (Homo sapiens): pEC50 value of `CC/C(=C1\c2ccc(F)cc2OCc2ncccc21)c1cccc(NS(C)(=O)=O)c1` ?
Response line: ~8.74
